experiment: Activation of actin-stimulated bovine cardiac myosin S1 fragment ATPase activity in sarcomere after 10 mins by spectrophotometric analysis; set-up: species or system Bos taurus
Recorded Endpoint: EC50 (µM)

Structure String: c1ccc(CCCc2nc(Cc3ccccc3)no2)cc1
EC50, µM: 3.02

a = c1ccc(CCCNc2nnc(-c3ccccc3)o2)cc1
b = c1ccc(CCCc2nnc(-c3ccccc3)o2)cc1
Q) Between the two listed entries a and b , which has its EC50 at the higher number? Refer to your chosen entry by its label in the reply.
A) a

* * *

species: Bos taurus; assay: Activation of actin-stimulated bovine cardiac myosin S1 fragment ATPase activity in sarcomere at 10 uM after 10 mins by spectrophotometric analysis relative to control
Recorded Endpoint: Activity (%)

Compound: CN(C)S(=O)(=O)c1ccc(CCCc2nc(-c3ccccc3)no2)cc1
Readout Units: %
Activity: 37.2
--
Compound: CN(C)S(=O)(=O)c1ccc(CCc2nnc(CCCc3ccccc3)o2)cc1
Readout Units: %
Activity: 33.6
--
Compound: c1ccc(CCNc2nnc(-c3ccccc3)o2)cc1
Readout Units: %
Activity: 35.2

a = COc1ccc(Cc2nnc(CCCc3ccccc3)o2)cc1OC
b = COc1ccc(-c2nnc(CCCc3ccccc3)o2)cc1
c = c1ccc(CCCc2nnc(-c3ccccc3)o2)cc1
d = c1ccc(CCCCc2nnc(C3CCOCC3)o2)cc1
Q) Please list these compounds in decreasing order of Activity. I would appreciate it if you listed the labels in the requested order.
A) c, b, a, d
(c: 59.2%, b: 37.3%, a: 16.1%, d: 11.2%)

A = COc1ccc(-c2noc(CCCc3ccccc3)n2)cc1OC
B = c1ccc(CCCc2nnc(C3CCOCC3)o2)cc1
C = COc1ccc(Cc2noc(CCCc3ccccc3)n2)cc1OC
Q) Ascending sort, Activity. I would appreciate it if you listed the labels in the requested order.
A) C, B, A

a = COc1ccc(-c2nnc(NCCCc3ccccc3)o2)cc1OC
b = c1ccc(CCCc2nnc(-c3ccncc3)o2)cc1
c = c1ccc(CCCc2nc(-c3ccccc3)no2)cc1
d = c1ccc(CCCc2nnc(CCCc3ccccc3)o2)cc1
e = c1ccc(CCCCc2nnc(-c3ccncc3)o2)cc1
Q) Ascending sort, Activity. I would appreciate it if you listed the labels in the requested order.
A) d, e, b, a, c
(d: 2.5%, e: 8.6%, b: 15.9%, a: 41.7%, c: 60.7%)
